Target: T1, His-tagged P3028 (human, also: His tag, length and end not given here)
T1 construct: in solution at 0.5 ug/mL, detected with mouse anti-His antibody and rabbit anti-mouse peroxidase (rampo); also called PGE73; His-tag-P3028; not shown: His tag
T1 peptide: VFDEFKPLVEEPQNLIK
Experiment: PEPSCAN ELISA, peptide on chip;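 note: binding detected by peroxidase ELISA with ABTS, OD405 colour imaged by CCD camera before and after staining, raw OD405 reported as rampo units, air-bubble wells scored 0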
Ends that are not written are not given here.
// no (0) strictly below 500 rampo units in RAMPO Score; yes (1) otherwise

Answer whether RAMPO Score of KKLDTFFVKLNLFTER [SEQ ID NO 347] is greater than or equal to 500 rampo units.
no (0)

RAMPO Score >= 500 rampo units for KKLDSFFVKLSLFTER [SEQ ID NO 310] ?
no (0)

# check: RAMPO Score of KKLDTFFVKLSLFVER [SEQ ID NO 385] is greater than or equal to 500 rampo units
no (0)

# check: RAMPO Score of RKLDTFFVKLSLFTER [SEQ ID NO 279] is greater than or equal to 500 rampo units
yes (1)

Is reported RAMPO Score greater than or equal to 500 rampo units here: KKLDTFFVKLSLFTER [SEQ ID NO 391]
no (0)

Does the reported RAMPO Score for KKLDTFFVKLQLFTER [SEQ ID NO 348] fall at or above the 500 rampo units mark?
yes (1)

For this binder, is measured RAMPO Score 500 rampo units or higher? KKLDTFFVKLSIFTER [SEQ ID NO 352]
no (0)
